- assayDetails: Pharmacokinetic profiles in dogs
- Assay type: in vivo
- conditionDetails: plasma; Dog, iv dosing 1 mg/kg
- Method: The compounds disclosed herein are assessed in pharmacokinetic studies in mice, rats, dogs or monkeys. The compounds are administered as a water solution, 2% HPMC+1% TWEEN®80 in water solution, 5% DMSO+5% solutol in saline, 4% MC suspension or capsule. For the intravenous administration, the animals are generally given at 1 or 2 mg/kg dose. […] The plasma solutions are collected, stored at −20° C. or −70° C. until analyzed by LC/MS/MS as described above.
# AUC(0-t) per entry

[
  {
    "compound": "Cc1nnc(-c2c(N)ncnc2N[C@@H](C)c2cc3cccc(Cl)c3c(=O)n2-c2ccccc2)o1 [Ex. 9]",
    "AUC(0-t)": "695 ng·h/mL"
  },
  {
    "compound": "Cc1noc(-c2c(N)ncnc2N[C@@H](C)c2cc3cccc(Cl)c3c(=O)n2-c2ccccc2)n1 [Ex. 8]",
    "AUC(0-t)": "1350 ng·h/mL"
  }
]

---

- assayDetails: Compound stability in human liver microsomes
- Assay type: in vitro ADME
- conditionDetails: pH 7.4; human liver microsomes 0.5 mg protein/mL, compound 5 μM, NADPH 1.0 mM, 37° C.; read-out: Human T1/2
half-life at 5 μM strictly less than 20 min = 1. Otherwise 0.

[
  {
    "compound": "CC[C@H](Nc1ncnc(N)c1-c1nc(C)no1)c1cc2cccc(Cl)c2c(=O)n1C1CC1 [Ex. 7]",
    "assignedLabel": 1
  },
  {
    "compound": "CC[C@H](Nc1ncnc(N)c1-c1ncn(C)n1)c1cc2cccc(Cl)c2c(=O)n1C1CC1 [Ex. 20]",
    "assignedLabel": 1
  },
  {
    "compound": "CC[C@H](Nc1ncnc(N)c1-c1nnc(C)o1)c1cc2cccc(Cl)c2c(=O)n1-c1ccccc1 [Ex. 5]",
    "assignedLabel": 0
  },
  {
    "compound": "CC[C@H](Nc1ncnc(N)c1-c1nnc(C)o1)c1cc2cccc(C)c2c(=O)n1C1CC1 [Ex. 6]",
    "assignedLabel": 1
  },
  {
    "compound": "Cc1noc(-c2c(N)ncnc2N[C@@H](C)c2cc3cccc(-c4cnn(C)c4)c3c(=O)n2-c2ccccc2)n1 [Ex. 28]",
    "assignedLabel": 0
  },
  {
    "compound": "Cc1nnc(-c2c(N)ncnc2N[C@@H](C)c2cc3cccc(-c4cnn(C)c4)c3c(=O)n2-c2ccccc2)o1 [Ex. 27]",
    "assignedLabel": 0
  },
  {
    "compound": "C[C@H](Nc1ncnc(N)c1-c1nnn(C)n1)c1cc2cccc(Cl)c2c(=O)n1-c1ccccc1 [Ex. 15]",
    "assignedLabel": 1
  },
  {
    "compound": "CC[C@H](Nc1ncnc(N)c1-c1noc(C)n1)c1cc2cccc(Cl)c2c(=O)n1C1CC1 [Ex. 21]",
    "assignedLabel": 1
  },
  {
    "compound": "C[C@H](Nc1ncnc(N)c1-c1nnn(C)n1)c1cc2cccc(-c3cnn(C)c3)c2c(=O)n1C1CC1 [Ex. 33]",
    "assignedLabel": 0
  },
  {
    "compound": "Cc1nnc(-c2c(N)ncnc2N[C@@H](C)c2cc3cccc(Cl)c3c(=O)n2-c2ccccc2)o1 [Ex. 9]",
    "assignedLabel": 0
  },
  {
    "compound": "CC[C@H](Nc1ncnc(N)c1-c1nc(C)no1)c1cc2cccc(Cl)c2c(=O)n1-c1ccccc1 [Ex. 3]",
    "assignedLabel": 1
  },
  {
    "compound": "Cc1noc(-c2c(N)ncnc2N[C@@H](C)c2cc3cccc(-c4cnn(C)c4)c3c(=O)n2C2CC2)n1 [Ex. 26]",
    "assignedLabel": 0
  },
  {
    "compound": "Cc1noc(-c2c(N)ncnc2N[C@@H](C)c2cc3cccc(Cl)c3c(=O)n2C2CC2)n1 [Ex. 24]",
    "assignedLabel": 1
  },
  {
    "compound": "Cc1noc(-c2c(N)ncnc2N[C@@H](C)c2cc3cccc(Cl)c3c(=O)n2-c2cccc(F)c2)n1 [Ex. 23]",
    "assignedLabel": 1
  },
  {
    "compound": "CC[C@H](Nc1ncnc(N)c1-c1nc(C)no1)c1cc2cccc(C)c2c(=O)n1-c1ccccc1 [Ex. 2]",
    "assignedLabel": 1
  }
]

---

- assayDetails: Pharmacokinetic profiles in rats
- Format: in vivo, rat
- conditionDetails: rat, plasma, iv dosing 1 mg/kg, read-out: Vss
Property: Vd; scope: individual compounds

[
  {
    "chemicalSmiles": "Cc1nc(-c2c(N)ncnc2N[C@@H](C)c2cc3cccc(-c4cnn(C)c4)c3c(=O)n2C2CC2)no1",
    "Vd, L/kg": 2.74
  },
  {
    "chemicalSmiles": "CC[C@H](Nc1ncnc(N)c1-c1nc(C)no1)c1cc2cccc(-c3cnn(C)c3)c2c(=O)n1C1CC1",
    "Vd, L/kg": 2.42
  },
  {
    "chemicalSmiles": "Cc1nnc(-c2c(N)ncnc2N[C@@H](C)c2cc3cccc(-c4cnn(C)c4)c3c(=O)n2C2CC2)o1",
    "Vd, L/kg": 3.31
  },
  {
    "chemicalSmiles": "CC[C@H](Nc1ncnc(N)c1-c1nc(C)no1)c1cc2cccc(F)c2c(=O)n1C1CC1",
    "Vd, L/kg": 3.99
  },
  {
    "chemicalSmiles": "C[C@H](Nc1ncnc(N)c1-c1nnn(C)n1)c1cc2cccc(Cl)c2c(=O)n1-c1ccccc1",
    "Vd, L/kg": 0.92
  },
  {
    "chemicalSmiles": "CC[C@H](Nc1ncnc(N)c1-c1nnn(C)n1)c1cc2cccc(Cl)c2c(=O)n1C1CC1",
    "Vd, L/kg": 4.42
  },
  {
    "chemicalSmiles": "CC[C@H](Nc1ncnc(N)c1-c1noc(C)n1)c1cc2cccc(-c3cnn(C)c3)c2c(=O)n1C1CC1",
    "Vd, L/kg": 2.9
  },
  {
    "chemicalSmiles": "CC[C@H](Nc1ncnc(N)c1-c1nnc(C)o1)c1cc2cccc(Cl)c2c(=O)n1C1CC1",
    "Vd, L/kg": 5.35
  },
  {
    "chemicalSmiles": "CC[C@H](Nc1ncnc(N)c1-c1noc(C)n1)c1cc2cccc(F)c2c(=O)n1-c1ccccc1",
    "Vd, L/kg": 1.66
  }
]

---

- assayDetails: Pharmacokinetic profiles in rats
- Type: in vivo, rat
- conditionDetails: rat, plasma, iv dosing 1 mg/kg
# label = YES if half-life < 1 h else NO

[
  {
    "chemicalSmiles": "C[C@H](Nc1ncnc(N)c1-c1nnn(C)n1)c1cc2cccc(Cl)c2c(=O)n1-c1ccccc1",
    "assignedLabel": "YES"
  },
  {
    "chemicalSmiles": "Cc1nnc(-c2c(N)ncnc2N[C@@H](C)c2cc3cccc(-c4cnn(C)c4)c3c(=O)n2C2CC2)o1",
    "assignedLabel": "NO"
  },
  {
    "chemicalSmiles": "CC[C@H](Nc1ncnc(N)c1-c1nc(C)no1)c1cc2cccc(C)c2c(=O)n1-c1ccccc1",
    "assignedLabel": "NO"
  },
  {
    "chemicalSmiles": "CC[C@H](Nc1ncnc(N)c1-c1nc(C)no1)c1cc2cccc(F)c2c(=O)n1C1CC1",
    "assignedLabel": "YES"
  },
  {
    "chemicalSmiles": "CC[C@H](Nc1ncnc(N)c1-c1ncn(C)n1)c1cc2cccc(Cl)c2c(=O)n1C1CC1",
    "assignedLabel": "YES"
  },
  {
    "chemicalSmiles": "CCc1noc(-c2c(N)ncnc2N[C@@H](CC)c2cc3cccc(Cl)c3c(=O)n2C2CC2)n1",
    "assignedLabel": "NO"
  },
  {
    "chemicalSmiles": "Cc1noc(-c2c(N)ncnc2N[C@@H](C)c2cc3cccc(-c4cnn(C)c4)c3c(=O)n2C2CC2)n1",
    "assignedLabel": "YES"
  },
  {
    "chemicalSmiles": "CC[C@H](Nc1ncnc(N)c1-c1noc(C)n1)c1cc2cccc(-c3cnn(C)c3)c2c(=O)n1C1CC1",
    "assignedLabel": "NO"
  },
  {
    "chemicalSmiles": "Cc1nc(-c2c(N)ncnc2N[C@@H](C)c2cc3cccc(-c4cnn(C)c4)c3c(=O)n2C2CC2)no1",
    "assignedLabel": "NO"
  }
]

---

- assayDetails: Compound stability in human liver microsomes
- Format: in vitro ADME
- conditionDetails: pH 7.4; human liver microsomes 0.5 mg protein/mL, compound 5 μM, NADPH 1.0 mM, 37° C.; read-out: Human T1/2
// map half-life at 5 μM onto a label; ranges bin 1 (below 9 min), bin 2 (9 min to below 40 min), bin 3 (40 min or more)

[
  {
    "chemicalSmiles": "CC[C@H](Nc1ncnc(N)c1-c1noc(C)n1)c1cc2cccc(-c3cnn(C)c3)c2c(=O)n1C1CC1",
    "assignedLabel": "bin 3"
  },
  {
    "chemicalSmiles": "CC[C@H](Nc1ncnc(N)c1-c1nnc(C)o1)c1cc2cccc(Cl)c2c(=O)n1C1CC1",
    "assignedLabel": "bin 2"
  },
  {
    "chemicalSmiles": "C[C@H](Nc1ncnc(N)c1-c1nnn(C)n1)c1cc2cccc(-c3cnn(C)c3)c2c(=O)n1-c1ccccc1",
    "assignedLabel": "bin 3"
  },
  {
    "chemicalSmiles": "CC[C@H](Nc1ncnc(N)c1-c1nnn(C)n1)c1cc2cccc(Cl)c2c(=O)n1C1CC1",
    "assignedLabel": "bin 2"
  },
  {
    "chemicalSmiles": "CCCCOC(=O)c1nc(-c2c(N)ncnc2N[C@@H](CC)c2cc3cccc(Cl)c3c(=O)n2C2CC2)nn1C",
    "assignedLabel": "bin 1"
  },
  {
    "chemicalSmiles": "CC[C@H](Nc1ncnc(N)c1-c1nc(C)no1)c1cc2cccc(F)c2c(=O)n1C1CC1",
    "assignedLabel": "bin 2"
  },
  {
    "chemicalSmiles": "C[C@H](Nc1ncnc(N)c1-c1ncn(C)n1)c1cc2cccc(Cl)c2c(=O)n1C1CC1",
    "assignedLabel": "bin 1"
  },
  {
    "chemicalSmiles": "CC[C@H](Nc1ncnc(N)c1-c1nc(C)no1)c1cc2cccc(-c3cnn(C)c3)c2c(=O)n1C1CC1",
    "assignedLabel": "bin 3"
  },
  {
    "chemicalSmiles": "Cc1nc(-c2c(N)ncnc2N[C@@H](C)c2cc3cccc(Cl)c3c(=O)n2C2CC2)no1",
    "assignedLabel": "bin 1"
  },
  {
    "chemicalSmiles": "CC[C@H](Nc1ncnc(N)c1-c1noc(C)n1)c1cc2cccc(F)c2c(=O)n1-c1ccccc1",
    "assignedLabel": "bin 1"
  },
  {
    "chemicalSmiles": "Cc1nnc(-c2c(N)ncnc2N[C@@H](C)c2cc3cccc(-c4cnn(C)c4)c3c(=O)n2C2CC2)o1",
    "assignedLabel": "bin 3"
  },
  {
    "chemicalSmiles": "CCc1noc(-c2c(N)ncnc2N[C@@H](CC)c2cc3cccc(Cl)c3c(=O)n2C2CC2)n1",
    "assignedLabel": "bin 2"
  }
]
